Give IC50 for every item shown.
# Subject of test: PAF receptor (Oryctolagus cuniculus, UniProt G1TEI7)
# Construct: endogenous in cells; host or cells: rabbit platelets (male New Zealand White)
# Sequence (G1TEI7 1-342): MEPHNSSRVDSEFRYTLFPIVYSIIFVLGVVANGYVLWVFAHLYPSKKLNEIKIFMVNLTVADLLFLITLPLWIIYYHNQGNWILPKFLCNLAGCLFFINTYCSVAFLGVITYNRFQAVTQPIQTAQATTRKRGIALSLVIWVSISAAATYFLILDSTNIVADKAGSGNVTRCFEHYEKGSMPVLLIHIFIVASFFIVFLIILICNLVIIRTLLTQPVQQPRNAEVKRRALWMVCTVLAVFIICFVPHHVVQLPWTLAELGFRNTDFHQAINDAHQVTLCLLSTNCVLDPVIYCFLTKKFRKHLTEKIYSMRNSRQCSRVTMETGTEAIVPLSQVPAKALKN
# Experiment description: Inhibition of PAF-induced aggregation in washed rabbit platelets
# Type: cell-based
# Condition context: PAF challenge 5E-9M, number of experiments in parentheses
Numbers only; they are read as nM.

Which IC50 value is on record for CCCCCCCCCCCCCCOc1cccc(OP(=O)([O-])Oc2cccc(C[n+]3csc(C)c3)c2)c1OC ?
5.49

Given the compound CCCCCCCCCCCCOc1cc(C(C)(C)C)c(OP(=O)([O-])Oc2cccc(C[n+]3ccsc3)c2)cc1C(C)(C)C , what is its reported IC50?
2.12

###

# Subject of test: PAF receptor (Oryctolagus cuniculus, UniProt G1TEI7)
# Construct: endogenous in cells; host or cells: rabbit platelets (male New Zealand White)
# Experiment description: Inhibition of PAF-induced aggregation in rabbit platelet rich plasma
# Type: cell-based, rabbit (male New Zealand White)
# Condition context: rabbit platelet rich plasma; PAF challenge 5E-8M; number of experiments in parentheses; read-out: IC50 inhibition of PAF-induced aggregation
Could you please report measured IC50 for the items listed next?
Express it in µM; write the number only.

Give the measured IC50 of CCCCCCCCCCCCOc1ccc2ccc(OP(=O)([O-])Oc3cccc(C[n+]4ccsc4)c3)cc2c1 .
26.4

Fill in the blank: the reported IC50 of CCCCCCCCCCCCOc1cc(OP(=O)([O-])Oc2cccc(C[n+]3ccsc3)c2)c(C(C)(C)C)cc1C(C)(C)C is ____.
30.2

Which IC50 value is on record for CCCCCCCCCCCCCCCCOc1cccc(OP(=O)([O-])Oc2ccccc2C[n+]2ccsc2)c1 ?
6.36

Suppose we examine the compound CCCCCCCCCCCCCCOc1cccc(COP(=O)([O-])Oc2cccc(C[n+]3ccsc3)c2)c1 ; what IC50 value has been reported?
4.22

Quick check: IC50 of CCCCCCCCCCCCCCOc1cccc(OP(=O)([O-])Oc2cccc(C[n+]3csc(C)c3)c2)c1 ?
8.82

Please report the recorded IC50 for CCCCCCCCCCCCCCCCOc1cccc(OP(=O)([O-])Oc2cccc(C[n+]3cccc4ccccc43)c2)c1C .
29.6

// lookup IC50 for CCCCCCCCCCCCCCOc1cccc(OP(=O)([O-])Oc2cccc(C[n+]3ccsc3)c2)c1OC
7.5

# input compound: CCCCCCCCCCCCOc1cc(C(C)(C)C)c(OP(=O)([O-])Oc2cccc(C[n+]3csc(C)c3)c2)cc1C(C)(C)C ; wanted: its IC50
0.412

###

Assignment: determine reported IC50 for the given molecules.
# Subject of test: PAF receptor (Oryctolagus cuniculus, UniProt G1TEI7)
# Construct: endogenous in cells; host or cells: rabbit platelets (male New Zealand White)
# Experiment description: Inhibition of PAF-induced aggregation in rabbit platelet rich plasma
# Assay type: cell-based, rabbit (male New Zealand White)
# Condition context: rabbit platelet rich plasma; PAF challenge 5E-8M; number of experiments in parentheses; read-out: IC50 inhibition of PAF-induced aggregation
Record the value in µM, omitting the unit from your answer.

Need IC50, item CCCCCCCCCCCCCCCCOc1cccc(OP(=O)(O)Oc2cccc(C[n+]3cccc4ccccc43)c2)c1
21.8

What value of measured IC50 is listed for CCCCCCCCCCCCCCCCOc1cccc(OP(=O)([O-])Oc2cccc(C[n+]3ccccc3)c2)c1 ?
15.4

# IC50 lookup, item CCCCCCCCCCCCCCOc1cccc(OP(=O)([O-])Oc2cccc(C[n+]3cccc4ccccc43)c2)c1OC
8

Endpoint output: IC50 of CCCCCCCCCCCCCCc1cccc(OP(=O)([O-])Oc2cccc(C[n+]3ccsc3)c2)c1 . Value?
18.8

Data request, read-out IC50, for CCCCCCCCCCCCCCOc1cccc(OP(=O)([O-])Oc2cccc(C[n+]3ccccc3)c2)c1OC
165

Which IC50 value is on record for CCCCCCCCCCCCCCOc1cccc(OP(=O)([O-])Oc2cccc(C[n+]3csc(C)c3)c2)c1C(=O)OC ?
0.521

For the molecule CCCCCCCCCCCCOc1cc(C(C)(C)C)c(OP(=O)([O-])Oc2cccc(C[n+]3cccc4ccccc43)c2)cc1C(C)(C)C , what IC50 is on record?
1.36

What value of IC50 has been recorded for this entry: Cc1c[n+](Cc2cccc(OP(=O)([O-])Oc3ccc(OCc4ccccc4)cc3)c2)cs1
1530

For the molecule CCCCCCCCCCCCOc1cccc(OP(=O)([O-])Oc2cccc(C[n+]3cccc4ccccc43)c2)c1OC , what IC50 is on record?
24.7

Recorded IC50 of CCCCCCCCCCCCCCOc1ccccc1OP(=O)([O-])Oc1cccc(C[n+]2ccsc2)c1 , please.
57.5

IC50 for CCCCCCCCCCCCOc1cccc(OP(=O)([O-])Oc2cccc(C[n+]3ccsc3)c2)c1 ?
52.8

Fill in the blank: the reported IC50 of CCCCCCCCCCCCCCOc1cccc(OP(=O)([O-])Oc2cccc(C[n+]3ccsc3)c2)c1C(=O)OC is ____.
2.7

Param item = CCCCCCCCCCCCCCCCOc1cccc(OP(=O)([O-])Oc2cccc(C[n+]3ccsc3)c2)c1 ; retrieve measured IC50.
2.13

Look up IC50: CCCCCCCCCCCCCCOc1cccc(OP(=O)([O-])Oc2cccc(C[n+]3cccc4ccccc43)c2)c1C(=O)OC
6.26

Suppose we examine the molecule CCCCCCCCCCCCCCOc1cccc(OP(=O)([O-])Oc2cccc(C[n+]3ccc4ccccc4c3)c2)c1OC ; what IC50 value has been reported?
20

Returns the measured IC50 for the input molecule. Input: CCCCCCCCCCCCCCOc1cccc(OP(=O)([O-])Oc2cccc(C[n+]3ccsc3)c2)c1
6.15

Field request: IC50 | item: CCCCCCCCCCCCOc1cccc(OP(=O)([O-])Oc2cccc(C[n+]3ccsc3)c2)c1OC
1.72

For the molecule CCCCCCCCCCCCCCOc1cccc(OP(=O)([O-])Oc2cccc(C[n+]3csc(C)c3)c2)c1OC , what IC50 is on record?
2.51

Look up IC50: CCCCCCCCCCCCCCCCOc1cccc(OP(=O)([O-])Oc2cccc(C[n+]3ccsc3)c2)c1C
2.65

I'd like to know its IC50. The molecule in question is CCCCCCCCCCCCCCCCOc1ccc(OP(=O)([O-])Oc2cccc(C[n+]3ccsc3)c2)cc1
3.28

###

Exercise: state measured pIC50 for each of the molecules provided.
# Subject of test: PAF receptor (Homo sapiens, UniProt P25105)
# Construct: Blood from healthy volunteers was collected; endogenous in cells
# Sequence (P25105 whole entry): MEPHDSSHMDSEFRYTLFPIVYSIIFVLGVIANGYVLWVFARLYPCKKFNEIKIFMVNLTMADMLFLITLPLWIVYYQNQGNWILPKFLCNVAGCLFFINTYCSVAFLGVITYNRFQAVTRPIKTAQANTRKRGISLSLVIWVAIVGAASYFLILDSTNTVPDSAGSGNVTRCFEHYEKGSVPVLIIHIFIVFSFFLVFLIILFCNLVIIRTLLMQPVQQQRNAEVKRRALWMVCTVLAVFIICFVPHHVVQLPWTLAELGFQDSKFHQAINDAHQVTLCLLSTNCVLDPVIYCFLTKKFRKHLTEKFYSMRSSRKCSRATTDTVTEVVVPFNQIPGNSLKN
# Experiment description: Inhibition of PAF-induced aggregation in human platelet rich plasma
# Condition context: PAF challenge 1E-6M, number of experiments in parentheses
The value called pIC50 is obtained by taking minus log10 of the concentration in mol/L.

# pIC50 lookup, item CCCCCCCCCCCCCCCCOc1cccc(OP(=O)([O-])Oc2cccc(C[n+]3ccsc3)c2)c1
5.60

Returns the measured pIC50 for the input molecule. Input: CCCCCCCCCCCCCCOc1cccc(OP(=O)([O-])Oc2cccc(C[n+]3ccsc3)c2)c1OC
4.58

Entry CCCCCCCCCCCCCCOc1cccc(OP(=O)([O-])Oc2cccc(C[n+]3csc(C)c3)c2)c1OC : reported pIC50 = ?
4.51

Reported pIC50 for CCCCCCCCCCCCOc1cc(C(C)(C)C)c(OP(=O)([O-])Oc2cccc(C[n+]3ccsc3)c2)cc1C(C)(C)C : what is it?
5.71

Quick one: pIC50 of CCCCCCCCCCCCOc1cc(C(C)(C)C)c(OP(=O)([O-])Oc2cccc(C[n+]3cccc4ccccc43)c2)cc1C(C)(C)C ?
4.32

Requested read-out: pIC50. Entry: CCCCCCCCCCCCCCCCOc1cccc(OP(=O)([O-])Oc2cccc(C[n+]3ccsc3)c2)c1C
6.92

###

# Test system: PAF induced lethality
# Experiment description: PAF induced lethality in mice
# Format: in vivo
# Condition context: I.P. 10 mg/kg; corrected for control lethality
Quantity name: PAF induced lethality, % protection (%)
# value in %; strip the unit string

So what does the record say about PAF induced lethality, % protection for CCCCCCCCCCCCCCOc1cccc(OP(=O)([O-])Oc2cccc(C[n+]3ccsc3)c2)c1OC ?
12

Fill in: PAF induced lethality, % protection of CCCCCCCCCCCCOc1cc(C(C)(C)C)c(OP(=O)([O-])Oc2cccc(C[n+]3csc(C)c3)c2)cc1C(C)(C)C is ___
36

Value lookup for PAF induced lethality, % protection; key = CCCCCCCCCCCCCCOc1cccc(OP(=O)([O-])Oc2cccc(C[n+]3csc(C)c3)c2)c1C(=O)OC
0

Fill in the blank: the reported PAF induced lethality, % protection of CCCCCCCCCCCCCCOc1cccc(OP(=O)([O-])Oc2cccc(C[n+]3ccsc3)c2)c1C(=O)OC is ____.
12

Please report the recorded PAF induced lethality, % protection for CCCCCCCCCCCCCCOc1cccc(OP(=O)([O-])Oc2cccc(C[n+]3csc(C)c3)c2)c1OC .
17

Quick one: PAF induced lethality, % protection of CCCCCCCCCCCCCCCCOc1ccc(OP(=O)([O-])Oc2cccc(C[n+]3ccsc3)c2)cc1 ?
96

These entries and their values trace back to patent US5231091A.
